test: Metabolic stability in human liver microsomes (Human MST); assay type: in vitro ADME; settings: pooled human liver microsomes, pH 7.6; human liver microsomes 1 mg/mL, 1 μM compound, NADPH 1 mM, 37° C.; read-out: Human MST t1/2
Measured half-life at 1 μM of individual entries

# count of solved cases: 2
• Cc1cc(-c2ccc(OCc3c(C)nnn3-c3ccc(C(F)F)cc3)nn2)cnn1 = > 2.17 h
• Cc1nnn(-c2ccc(C(F)F)cc2)c1COc1ccc(-c2cnn(C3CC3)c2)nn1 = > 2.17 h

Attention now shifts to the item below.
Please give the documented half-life at 1 μM of `Cc1nnn(-c2ccc(C(F)F)cc2)c1COc1ccc(-c2cnccn2)nn1`
> 2.17 h
